Where do these numbers come from? They come from patent US12497462.

system: IgG Control
assay method text: ELISA screen of scFv clones, plate panel 'IgG Control'
readout: ELISA OD450
# answer = number (no unit)

Completed entries (count: 3):
- binder: "CD26-03B scFv (scFv, part only; not given: VL-VH linker and detection tag, V domains shown, not shown: another chain or arm of the molecule; small tags and cut ends) VL: DIQMTQSPSSLSASVGDRVTITCRASQDVYYFVAWYQQKPGKAPKLLISWPTGLYSGVPSRFSGSGSGTDFTLTISSLQPEDFATYYCQQYFSYPITFGQGTKVEIK VH: EVQLVESGGGLVQPGGSLRLSCAASGFTIGNSYIHWVRQAPGKGLEWVAGIGPYWGFTSYADSVKGRFTISADTSKNTAYLQMNSLRAEDTAVYYCARFNGSSGFMDYWGQGTLVTVSS"
  endpoint result: 0.045
- binder: "CD26-10B scFv (scFv, part only; not given: VL-VH linker and detection tag, V domains shown, not shown: another chain or arm of the molecule; small tags and cut ends) VL: DIQMTQSPSSLSASVGDRVTITCRASQDVWGYVAWYQQKPGKAPKLLIFASGALYSGVPSRFSGSGSGTDFTLTISSLQPEDFATYYCQQYFNWPITFGQGTKVEIK VH: EVQLVESGGGLVQPGGSLRLSCAASGFTISDYSIHWVRQAPGKGLEWVASIWPYGGFTSYADSVKGRFTISADTSKNTAYLQMNSLRAEDTAVYYCARFHSSSGDMDYWGQGTLVTVSS"
  endpoint result: 0.046
- binder: "CD26-04A scFv (scFv, part only; not given: VL-VH linker and detection tag, V domains shown, not shown: another chain or arm of the molecule; small tags and cut ends) VL: DIQMTQSPSSLSASVGDRVTITCRASQDVSGGVAWYQQKPGKAPKLLIYGTSGLYSGVPSRFSGSGSGTDFTLTISSLQPEDFATYYCQQGGDWPITFGQGTKVEIK VH: EVQLVESGGGLVQPGGSLRLSCAASGFAINNYSIHWVRQAPGKGLEWVASIWPYGGFTSYADSVKGRFTISADTSKNTAYLQMNSLRAEDTAVYYCARFFSSYGDMDYWGQGTLVTVSS"
  endpoint result: 0.069

# input for lookup
For reference, reported ELISA OD450 for CD26-01D scFv (scFv, part only; not given: VL-VH linker and detection tag, V domains shown, not shown: another chain or arm of the molecule; small tags and cut ends) VL: DIQMTQSPSSLSASVGDRVTITCRASQDVNSNVAWYQQKPGKAPKLLIFGSGGLYSGVPSRFSGSGSGTDFTLTISSLQPEDFATYYCQQYSSYPLTFGQGTKVETK VH: EVQLVESGGGLVQPGGSLRLSCAASGFTINDSYIHWVRQAPGKGLEWVAWIWPYGGFTYYADSVKGRFTISADTSKNTAYLQMNSLRAEDTAVYYCARFLGSSSIMDYWGQGTLVTVSS stands at 0.05
